# Test system: CD46 expression
# assay.summary: CD46 expression by RNA-sequencing in unpaired pre-treatment and post-treatment tumor biopsies
# Type: in vivo, human
# condition.notes: Prostate Cancer; post-treatment biopsies, unpaired; RNA-seq log2-transformed normalized counts
parameter: CD46 expression Post
Give bare numbers.

compound="C[C@]12CC[C@H](O)CC1=CC[C@@H]1[C@@H]2CC[C@]2(C)C(c3cccnc3)=CC[C@@H]12 [abiraterone]" observed=6.10
compound="N.N.O=C([O-])C1(C(=O)[O-])CCC1.[Pt+2] [carboplatin]" observed=5.92
compound="CC(=O)O[C@@]12CO[C@@H]1C[C@H](O)[C@@]1(C)C(=O)[C@H](O)C3=C(C)[C@@H](OC(=O)[C@H](O)[C@@H](NC(=O)OC(C)(C)C)c4ccccc4)C[C@@](O)([C@@H](OC(=O)c4ccccc4)[C@H]21)C3(C)C [docetaxel]" observed=6.02
compound="CNC(=O)c1ccc(N2C(=S)N(c3cnc(C#N)c(C(F)(F)F)c3)C(=O)C23CCC3)cc1F [apalutamide]" observed=6.14

# batch: return CD46 expression Post for each of the 3 compounds below
1. CNC(=O)c1ccc(N2C(=S)N(c3ccc(C#N)c(C(F)(F)F)c3)C(=O)C2(C)C)cc1F [enzalutamide]
2. CCNC(=O)[C@@H]1CCCN1C(=O)[C@H](CCCNC(=N)N)NC(=O)[C@H](CC(C)C)NC(=O)[C@@H](CC(C)C)NC(=O)[C@H](Cc1ccc(O)cc1)NC(=O)[C@H](CO)NC(=O)[C@H](Cc1c[nH]c2ccccc12)NC(=O)[C@H](Cc1c[nH]cn1)NC(=O)[C@@H]1CCC(=O)N1 [leuprolide]
3. C[C@]12C=CC(=O)C=C1CC[C@@H]1[C@@H]2C(=O)C[C@@]2(C)[C@H]1CC[C@]2(O)C(=O)CO [prednisone]

6.14
6.08
6.08

----------
So I've got a bunch of compounds here, and I need their Percent Change in CD46 expression values.
# Test system: CD46 expression
# assay.summary: CD46 expression by RNA-sequencing in paired tumor biopsies before and after therapy
# condition.notes: Breast Cancer; paired biopsies
Give bare numbers, in %.

# count of solved cases: 3
compound=CC/C(=C(\c1ccccc1)c1ccc(OCCN(C)C)cc1)c1ccccc1 observed=1.7
compound=CC(C)(C#N)c1cc(Cn2cncn2)cc(C(C)(C)C#N)c1 observed=6.7
compound=Cc1nc(NC(=O)N2CCC[C@H]2C(N)=O)sc1-c1ccnc(C(C)(C)C(F)(F)F)c1 observed=−0.1

Required: Percent Change in CD46 expression, one value per compound below.
1. Nc1ccn([C@@H]2O[C@H](CO)[C@@H](O)C2(F)F)c(=O)n1
2. CC(=O)O[C@@]12CO[C@@H]1C[C@H](O)[C@@]1(C)C(=O)[C@H](O)C3=C(C)[C@@H](OC(=O)[C@H](O)[C@@H](NC(=O)OC(C)(C)C)c4ccccc4)C[C@@](O)([C@@H](OC(=O)c4ccccc4)[C@H]21)C3(C)C
3. CC(=O)O[C@H]1C(=O)[C@@]2(C)[C@H]([C@H](OC(=O)c3ccccc3)[C@]3(O)C[C@H](OC(=O)[C@H](O)[C@@H](NC(=O)c4ccccc4)c4ccccc4)C(C)=C1C3(C)C)[C@]1(OC(C)=O)CO[C@@H]1C[C@@H]2O

1: 1.4; 2: 3.7; 3: −1.4

Provide reported Percent Change in CD46 expression for each item, in the same order as listed.
1. CC(=O)c1c(C)c2cnc(Nc3ccc(N4CCNCC4)cn3)nc2n(C2CCCC2)c1=O
2. N#Cc1ccc(C(c2ccc(C#N)cc2)n2cncn2)cc1

−2.7
−0.6

Provide each entry's Percent Change in CD46 expression from the list below.
1. CCCCCOC(=O)Nc1nc(=O)n([C@@H]2O[C@H](C)[C@@H](O)[C@H]2O)cc1F
2. C[C@]12CC[C@@H]3c4ccc(O)cc4C[C@@H](CCCCCCCCC[S+]([O-])CCCC(F)(F)C(F)(F)F)[C@H]3[C@@H]1CC[C@@H]2O (some centres unmarked)
3. COc1cccc2c1C(=O)c1c(O)c3c(c(O)c1C2=O)C[C@@](O)(C(=O)CO)C[C@@H]3O[C@H]1C[C@H](N)[C@H](O)[C@H](C)O1
4. C=C1C[C@@H]2CC[C@@]34C[C@H]5O[C@H]6[C@@H](O3)[C@H]3O[C@H](CC[C@@H]3O[C@H]6[C@H]5O4)CC(=O)C[C@@H]3[C@@H](OC)[C@@H](C[C@H](O)CN)O[C@H]3C[C@H]3O[C@@H](CC[C@@H]1O2)C[C@@H](C)C3=C
5. N.N.O=C([O-])C1(C(=O)[O-])CCC1.[Pt+2]

1: −0.9; 2: −2.1; 3: 1.9; 4: −8.4; 5: −1.2

Return Percent Change in CD46 expression (reported value) for this compound: O=P1(N(CCCl)CCCl)NCCCO1 (centres unmarked) [cyclophosphamide]
0.2

----------
Task for the reader: assign each of the following molecules its reported CD46 expression Post.
# Test system: CD46 expression
# assay.summary: CD46 expression by RNA-sequencing in unpaired pre-treatment and post-treatment tumor biopsies
# Type: in vivo, human
# condition.notes: Head and Neck Squamous Cell Carcinoma; post-treatment biopsies, unpaired; RNA-seq log2-transformed normalized counts
Give bare numbers.

molecule="N.N.[Cl][Pt][Cl] [cisplatin]" observed=5.69
molecule="CC(=O)O[C@H]1C(=O)[C@@]2(C)[C@H]([C@H](OC(=O)c3ccccc3)[C@]3(O)C[C@H](OC(=O)[C@H](O)[C@@H](NC(=O)c4ccccc4)c4ccccc4)C(C)=C1C3(C)C)[C@]1(OC(C)=O)CO[C@@H]1C[C@@H]2O [paclitaxel]" observed=5.68
molecule="N.N.O=C([O-])C1(C(=O)[O-])CCC1.[Pt+2] [carboplatin]" observed=5.69

Shifting focus to the molecule that follows.
State, in one line, measured CD46 expression Post of O=c1[nH]cc(F)c(=O)[nH]1 [fluorouracil]
5.63

----------
# System: CD46 expression
# assay.summary: CD46 expression by RNA-sequencing in paired tumor biopsies before and after therapy;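 further: FFPE human tumor biopsies, exome-capture RNA-seq, reads aligned to GRCh37, counts normalized for GC content, length and depth, summed per gene, log2-transformed, samples paired before versus after therapy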
# condition.notes: Non-Small Cell Lung Cancer; paired biopsies
parameter: CD46 expression diff (post minus pre)
Give bare numbers.

The cases that follow already have their CD46 expression diff (post minus pre) on record.
compound=C=CC(=O)Nc1cc(Nc2nccc(-c3cn(C)c4ccccc34)n2)c(OC)cc1N(C)CCN(C)C observed=−0.26
compound=Nc1nc2[nH]cc(CCc3ccc(C(=O)N[C@@H](CCC(=O)O)C(=O)O)cc3)c2c(=O)[nH]1 observed=−0.20
compound=CC(=O)O[C@H]1C(=O)[C@@]2(C)[C@H]([C@H](OC(=O)c3ccccc3)[C@]3(O)C[C@H](OC(=O)[C@H](O)[C@@H](NC(=O)c4ccccc4)c4ccccc4)C(C)=C1C3(C)C)[C@]1(OC(C)=O)CO[C@@H]1C[C@@H]2O observed=−0.23
compound="N.N.[Cl][Pt][Cl] [cisplatin]" observed=−0.45

Item `N.N.O=C([O-])C1(C(=O)[O-])CCC1.[Pt+2]` : provide CD46 expression diff (post minus pre)
−0.06

----------
I'd be grateful if you could share measured CD46 expression diff for these entries.
# Tested on: CD46 expression
# assay.summary: CD46 expression by RNA-sequencing in unpaired pre-treatment and post-treatment tumor biopsies
# Assay type: in vivo, human
# condition.notes: Head and Neck Squamous Cell Carcinoma; Post minus Pre, unpaired biopsies; log2-transformed counts
Numbers only.

Sample records with CD46 expression diff:
compound="N.N.O=C([O-])C1(C(=O)[O-])CCC1.[Pt+2] [carboplatin]" observed=0.11
compound="N.N.[Cl][Pt][Cl] [cisplatin]" observed=0.13
compound="O=c1[nH]cc(F)c(=O)[nH]1 [fluorouracil]" observed=0.03

Next item in the queue.
Give the value of CD46 expression diff reported for the following: CC(=O)O[C@H]1C(=O)[C@@]2(C)[C@H]([C@H](OC(=O)c3ccccc3)[C@]3(O)C[C@H](OC(=O)[C@H](O)[C@@H](NC(=O)c4ccccc4)c4ccccc4)C(C)=C1C3(C)C)[C@]1(OC(C)=O)CO[C@@H]1C[C@@H]2O [paclitaxel]
0.13

----------
# Test system: CD46 expression
# assay.summary: CD46 expression by RNA-sequencing in unpaired pre-treatment and post-treatment tumor biopsies
# Format: in vivo, human
# condition.notes: Prostate Cancer; post- vs pre-treatment unpaired biopsies
parameter: CD46 expression Percentage change (%)
Give bare numbers, in %.

compound=N.N.O=C([O-])C1(C(=O)[O-])CCC1.[Pt+2] observed=−0.5

Give me CD46 expression Percentage change for each of these compounds, listed below.
1. CCNC(=O)[C@@H]1CCCN1C(=O)[C@H](CCCNC(=N)N)NC(=O)[C@H](CC(C)C)NC(=O)[C@@H](CC(C)C)NC(=O)[C@H](Cc1ccc(O)cc1)NC(=O)[C@H](CO)NC(=O)[C@H](Cc1c[nH]c2ccccc12)NC(=O)[C@H](Cc1c[nH]cn1)NC(=O)[C@@H]1CCC(=O)N1 [leuprolide]
2. C[C@]12C=CC(=O)C=C1CC[C@@H]1[C@@H]2C(=O)C[C@@]2(C)[C@H]1CC[C@]2(O)C(=O)CO

1. −1.6
2. −1.7
